Reference source for all entries: patent US20220031695A1

- system_tested: SHP2 (Homo sapiens)
- Sequence (Q06124 whole entry): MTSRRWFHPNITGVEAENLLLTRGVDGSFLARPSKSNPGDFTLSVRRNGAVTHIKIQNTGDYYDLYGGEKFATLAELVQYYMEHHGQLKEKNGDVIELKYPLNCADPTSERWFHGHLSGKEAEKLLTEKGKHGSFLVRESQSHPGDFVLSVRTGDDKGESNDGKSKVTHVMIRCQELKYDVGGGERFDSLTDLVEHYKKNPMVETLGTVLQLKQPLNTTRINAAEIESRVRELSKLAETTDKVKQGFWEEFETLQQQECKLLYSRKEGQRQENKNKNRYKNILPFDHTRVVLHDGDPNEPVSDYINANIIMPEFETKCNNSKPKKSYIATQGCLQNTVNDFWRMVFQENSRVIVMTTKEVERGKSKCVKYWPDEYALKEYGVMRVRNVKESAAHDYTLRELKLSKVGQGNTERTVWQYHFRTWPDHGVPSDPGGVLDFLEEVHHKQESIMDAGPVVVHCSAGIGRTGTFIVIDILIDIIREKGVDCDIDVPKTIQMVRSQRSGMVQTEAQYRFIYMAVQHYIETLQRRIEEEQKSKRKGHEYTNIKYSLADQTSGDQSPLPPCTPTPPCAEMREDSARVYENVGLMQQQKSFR
- method: SHP2 allosteric inhibition assay (DiFMUP prompt fluorescence)
- Type: biochemical
- test_parameters: 0.2 nM SHP2, 0.5 μM activating peptide, DiFMUP substrate
- Excerpt: Without wishing to be bound by theory, SHP is allosterically activated through binding of bis-tyrosyl-phosphorylated peptides to its Src Homology 2 (SH2) domains. […] The catalytic activity of SHP2 was monitored using the surrogate substrate DiFMUP in a prompt fluorescence assay format. […]
attribute_measured: pIC50
Remember, pIC50 is on a log scale: it is -log10 of the molar concentration.

Result for Nc1nc(N2CCC3(CCC[C@H]3N)CC2)cnc1Sc1ccnc(Cl)c1Cl [RMC-3943] , tested on SHP2 (Homo sapiens), pIC50: 8.66
